Provenance of the data: ChEMBL document CHEMBL3988442

Listed here are compounds together with their documented Percent Effect.
target: AMP-activated protein kinase, AMPK (Homo sapiens) (UniProt P54646+O43741+P54619+Q9UGJ0+Q9Y478+Q13131+Q9UGI9); assay: AMP-dependent Kinase enzyme assay. An in vitro enzyme assay that detects ADP turnover that is directly proportional to AMPK activity. This uses naive AMPK that is activated during the assay with MK-8722; assay type: functional; design: scale not given: direction of the effect not stated beside the values; conditions: 30 µM
Please give a number only; it is taken to be in %.

# example entries with known answers
| compound | Percent Effect [%] |
| --- | --- |
| COCCOc1ccc(NC(=O)C2CC(=O)N(C)C2)cn1 (stereo not drawn) | -16.4 |
| Cc1cc(CN2CCN(C(=O)C(C)C)[C@@H]3CS(=O)(=O)C[C@@H]32)ccc1F | -6.22 |
| O=C(Cc1ccc2c(c1)OCCO2)NC1CCCC1 | 2.67 |
| CCc1ncncc1C(=O)N1CCN(Cc2ccco2)CC1 | 2.99 |

Inquiry: For the compound shown here, Cc1nnc2n1CCN(C(=O)c1cc(Cl)c(Cl)n1C)C2 , give the reported Percent Effect.
Reply text: -1.75

Inquiry: What does the data say about its Percent Effect? Entry: c1cncc(COCC2CN(Cc3ccco3)Cc3ccnn3C2)c1 (stereo not drawn)
Reply text: -6.55

Inquiry: // Percent Effect lookup, key: Cc1n[nH]c(C)c1C1COCCN1C(=O)Cc1cccc(F)c1 (stereo not drawn)
Reply text: 2.69

Inquiry: // Percent Effect lookup, key: CCc1noc(CN(C)Cc2ccc(N3CCCCC3)cc2)n1
Reply text: 0.261

Inquiry: Given the entry CC(C)(C)C(=O)N1CCCC1c1nc(O)cc(-c2ccccn2)n1 (stereo not drawn) , report its measured Percent Effect.
Reply text: 5.44

Inquiry: Looking for the measured Percent Effect of O=C(CN1CCCC1Cn1cccn1)NC1CCOCC1 (stereo not drawn) , can you help?
Reply text: -3.32

Inquiry: Record request: Percent Effect value, item NS(=O)(=O)c1ccc(NC(=O)CSc2ccc3c(c2)CCC3)cc1
Reply text: 2.08

Inquiry: Suppose we examine the compound Cc1cnn(C2CCCN(C(=O)c3ccc(N(C)C)nn3)C2)c1 (stereo not drawn) ; what Percent Effect value has been reported?
Reply text: 1.44

Inquiry: Endpoint output: Percent Effect of CC1(C)CC(N2Cc3nc(N)ncc3C2=O)CC(C)(C)N1 . Value?
Reply text: -3.77

Inquiry: Recorded Percent Effect for Cc1cc(C)n(CC(=O)NC(Cc2ccsc2)c2ccccn2)c(=O)n1 (stereo not drawn) , please?
Reply text: -6.03
